# Test system: Salmonella enterica typhimurium
# ASSAY_EXPLANATION: growth AUC normalised to DMSO control (fraction of control); higher = less growth inhibition, active = hit call of the paper
# ASSAY_CONDITIONS: 20 µM
Counter-ions that a name gives are not always drawn.
Below, each of the compounds is paired with its reported growth AUC normalised to DMSO control value.
MEASURE_NAME: growth AUC normalised to DMSO control

[[record]]
compound = "CC1CCc2cc(F)cc3c(=O)c(C(=O)O)cn1c23 (stereo not drawn)"
measure_name = "growth AUC normalised to DMSO control"
observed_measurement = 0.00993

[[record]]
compound = "CCCC1O[C@@H]2C[C@H]3[C@@H]4CCC5=CC(=O)C=C[C@]5(C)[C@H]4[C@@H](O)C[C@]3(C)[C@]2(C(=O)CO)O1 (stereo partly drawn) [Budesonide]"
measure_name = "growth AUC normalised to DMSO control"
observed_measurement = 0.978

[[record]]
compound = "CN1CCCC(CC2c3ccccc3Sc3ccccc32)C1 (stereo not drawn) [Metixene hydrochloride]"
measure_name = "growth AUC normalised to DMSO control"
observed_measurement = 0.987

[[record]]
compound = "CC[N+](CC)(CC(=O)Nc1c(C)cccc1C)Cc1ccccc1 [Denatonium benzoate]"
measure_name = "growth AUC normalised to DMSO control"
observed_measurement = 1.01

[[record]]
compound = "CC(=O)Nc1ccc(OCC(O)CNC(C)C)cc1 (stereo not drawn)"
measure_name = "growth AUC normalised to DMSO control"
observed_measurement = 1

[[record]]
compound = "N=c1nc(N2CCCCC2)cc(N)n1O"
measure_name = "growth AUC normalised to DMSO control"
observed_measurement = 1

[[record]]
compound = "NC(=O)c1cc[n+](CC2=C(C(=O)[O-])N3C(=O)[C@@H](NC(=O)[C@@H](c4ccccc4)S(=O)(=O)O)[C@H]3SC2)cc1 [Cefsulodin sodium salt]"
measure_name = "growth AUC normalised to DMSO control"
observed_measurement = 0.944

[[record]]
compound = "CN(C)CCC(c1ccccc1)c1ccccn1 (stereo not drawn) [Pheniramine maleate]"
measure_name = "growth AUC normalised to DMSO control"
observed_measurement = 0.996


====

# Test system: P. vulgatus WT;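 note: active when median AUC fell below 0.1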
# ASSAY_EXPLANATION: growth AUC normalised to DMSO control (median) (fraction of control); higher = less growth inhibition, active = hit call of the paper
# ASSAY_CONDITIONS: 20 µM
Counter-ions that a name gives are not always drawn.
Classification field: enter yes (1) for growth AUC normalised to DMSO control values not below 1, no (0) for values below it.

[[record]]
molecule = "CCCCC(=O)O[C@H]1CC[C@H]2[C@@H]3CCc4cc(O)ccc4[C@H]3CC[C@]12C [Estradiol Valerate]"
category = "yes (1)"

[[record]]
molecule = "C[C@@H](O)[C@H]1C(=O)N2C(C(=O)O)=C(S[C@@H]3CN[C@H](C(=O)N(C)C)C3)[C@H](C)[C@H]12 [Meropenem]"
category = "no (0)"

[[record]]
molecule = "Cc1c(NC(C)C)c(=O)n(-c2ccccc2)n1C [Isopyrin hydrochloride]"
category = "yes (1)"

[[record]]
molecule = "O=C1CCc2ccc(OCCCCN3CCN(c4cccc(Cl)c4Cl)CC3)cc2N1 [Aripiprazole]"
category = "no (0)"

[[record]]
molecule = "CC(=O)Nc1ccc(OCC(O)CNC(C)C)cc1 (stereo not drawn) [Practolol]"
category = "yes (1)"

